// provenance: paper PMC4066763

Target: T1, Bat1 (BurrH) (Burkholderia rhizoxinica HKI 0454, UniProt E5AV36 1-771)
T1 sequence: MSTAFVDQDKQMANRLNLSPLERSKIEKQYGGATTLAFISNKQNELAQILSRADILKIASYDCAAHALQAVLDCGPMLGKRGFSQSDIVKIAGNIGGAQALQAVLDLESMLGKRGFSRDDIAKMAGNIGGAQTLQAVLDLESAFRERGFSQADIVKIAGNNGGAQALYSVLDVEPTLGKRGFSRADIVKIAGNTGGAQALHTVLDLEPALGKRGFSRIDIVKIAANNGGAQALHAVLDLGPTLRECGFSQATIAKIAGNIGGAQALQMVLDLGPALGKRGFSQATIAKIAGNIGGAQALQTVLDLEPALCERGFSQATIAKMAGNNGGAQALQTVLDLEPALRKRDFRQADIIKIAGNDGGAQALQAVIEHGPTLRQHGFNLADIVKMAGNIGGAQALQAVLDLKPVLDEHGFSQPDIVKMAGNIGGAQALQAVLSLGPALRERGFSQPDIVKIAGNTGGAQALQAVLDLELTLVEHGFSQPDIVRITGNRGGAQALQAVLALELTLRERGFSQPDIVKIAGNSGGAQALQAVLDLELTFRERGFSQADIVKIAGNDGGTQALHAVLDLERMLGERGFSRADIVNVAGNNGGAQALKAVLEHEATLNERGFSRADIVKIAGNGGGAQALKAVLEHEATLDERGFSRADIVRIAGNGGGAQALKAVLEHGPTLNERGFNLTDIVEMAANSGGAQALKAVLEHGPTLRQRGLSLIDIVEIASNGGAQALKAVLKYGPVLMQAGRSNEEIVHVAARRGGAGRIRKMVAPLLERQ
Assay: MST; 10 mM MgCl2; EMSA: 15 mM Tris-Cl, 75 mM KCl, 2.5 mM DTT, 0.063% NP-40, 62.5 ng/ul dI.dC, 0.125 mg/ml BSA, 6.25% glycerol, 6.25 mM MgCl2, 0.125 mM EDTA, room temp, gel at 4 C; MST: 20 mM Tris pH 7.4, 150 mM NaCl, 10 mM MgCl2, 0.05% Tween, room temp, 100 nM labelled Bat1
Conditions: protein: recombinant; tags: N-terminal His; label: none (stated unlabelled)
pKd: −log10 of the molar value.
Property: pKd

[
  {
    "Binder": "BEBat1 T-0, MST (dsDNA) DNA 1: TAGACTAAGAGAAGCAAAGACGTTATATGC DNA 2: GCATATAACGTCTTTGCTTCTCTTAGTCTA",
    "Value": 6.88
  }
]
